# Tested on: 361931-004-R-J1-PDC multicell spheroid viability
# Experiment notes: Anticancer human tumor 361931-004-R-J1-PDC patient-derived colon adenocarcinoma cell line growth inhibition [PI3K]
# Measurement conditions: curve of first compound; second compound 10 µM
Property: IC50

# count of solved cases: 2
Query: Item: CC(=O)c1c(C)c2cnc(Nc3ccc(N4CCNCC4)cn3)nc2n(C2CCCC2)c1=O + CC(Nc1ncnc2nc[nH]c12)c1cc2cccc(Cl)c2c(=O)n1-c1ccccc1 Test system: 361931-004-R-J1-PDC multicell spheroid viability Read-out: IC50 Value: ?
Response: > 100 nM

Query: Item: C=CC(=O)N1CCN(c2nc(=O)n(-c3c(C)ccnc3C(C)C)c3nc(-c4c(O)cccc4F)c(F)cc23)C(C)C1 (stereo not drawn) + CC(Nc1ncnc2nc[nH]c12)c1cc2cccc(Cl)c2c(=O)n1-c1ccccc1 Test system: 361931-004-R-J1-PDC multicell spheroid viability Read-out: IC50 Value: ?
Response: > 10000 nM

Continue with the compound presented below.
Query: Item: CC(C)n1nc(-c2ccc3oc(N)nc3c2)c2c(N)ncnc21 + CC(Nc1ncnc2nc[nH]c12)c1cc2cccc(Cl)c2c(=O)n1-c1ccccc1 Test system: 361931-004-R-J1-PDC multicell spheroid viability Read-out: IC50 Value: ?
Response: > 100 nM

* * *

# Test system: 361931-004-R-J1-PDC multicell spheroid viability
# Experiment notes: Anticancer human tumor 361931-004-R-J1-PDC cell line growth inhibition [PI3K];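 also: spheroids exposed to agents for seven days before readout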
# Measurement conditions: second compound 1 µM; first compound 1 µM; stronger effect = lower value
Listed molecules paired with reported viability, T/C
Value expressed in %; do not type the unit.

Query: Sample Cn1ncc(Cl)c1-c1cc(C(=O)NC(CN)Cc2cccc(F)c2)sc1Cl (stereo not given) + CC(Nc1ncnc2nc[nH]c12)c1cc2cccc(Cl)c2c(=O)n1-c1ccccc1 — what was its viability, T/C?
Response: 61.8

Query: Sample CC1(C)CCC(Nc2ncc(C(F)(F)F)c(-c3c[nH]c4c(P(C)(C)=O)c(C#N)ccc34)n2)CN1 (stereo not given) + COc1c(OCCCN2CCOCC2)ccc2c3n(c(=NC(=O)c4cnc(N)nc4)nc12)CCN3 — what was its viability, T/C?
Response: 24.3

Query: Sample CNC(=O)c1ccc(N2C(=S)N(c3ccc(C#N)c(C(F)(F)F)c3)C(=O)C2(C)C)cc1F + COc1c(OCCCN2CCOCC2)ccc2c3n(c(=NC(=O)c4cnc(N)nc4)nc12)CCN3 — what was its viability, T/C?
Response: 26.8

Query: Sample CC(Cn1ccc(-c2ccc(C#N)c(Cl)c2)n1)NC(=O)c1cc(C(C)O)[nH]n1 (stereo not given) + COc1c(OCCCN2CCOCC2)ccc2c3n(c(=NC(=O)c4cnc(N)nc4)nc12)CCN3 — what was its viability, T/C?
Response: 19.5

Query: Sample Cn1ncc(Cl)c1-c1cc(C(=O)NC(CN)Cc2cccc(F)c2)sc1Cl (stereo not given) + COc1c(OCCCN2CCOCC2)ccc2c3n(c(=NC(=O)c4cnc(N)nc4)nc12)CCN3 — what was its viability, T/C?
Response: 20.3

* * *

Listed compounds paired with reported pIC50
# Test system: 361931-004-R-J1-PDC multicell spheroid viability
# Experiment notes: Anticancer human tumor 361931-004-R-J1-PDC cell line growth inhibition [PI3K];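 also: spheroids exposed to agents for seven days before readout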
# Measurement conditions: curve of first compound; second compound 0.0316 µM
# Source text: Combinatorial screen of targeted agents with the PI3K inhibitors inavolisib, alpelisib, duvelisib, and copanlisib in multi-cell type tumor spheroids A high-throughput screen of multi-cell type tumor spheroids was designed to identify active combinations of targeted small molecules and PI3K pathway inhibitors. […] Compounds. […] If the clinical Cmax for an agent had not been determined, the highest concentration tested was 10 microM. […]
pIC50: −log10 of the molar value.

# count of solved cases: 4
Query: Sample CC(=O)c1c(C)c2cnc(Nc3ccc(N4CCNCC4)cn3)nc2n(C2CCCC2)c1=O + COc1c(OCCCN2CCOCC2)ccc2c3n(c(=NC(=O)c4cnc(N)nc4)nc12)CCN3 — what was its pIC50?
Response: < 7.00

Query: Sample CNC(=O)c1ccc(N2C(=S)N(c3ccc(C#N)c(C(F)(F)F)c3)C(=O)C2(C)C)cc1F + CC(Nc1ncnc2nc[nH]c12)c1cc2cccc(Cl)c2c(=O)n1-c1ccccc1 — what was its pIC50?
Response: < 5.00

Query: Sample C=CC(=O)N1CCN(c2nc(=O)n(-c3c(C)ccnc3C(C)C)c3nc(-c4c(O)cccc4F)c(F)cc23)C(C)C1 (stereo not given) + Cc1nc(NC(=O)N2CCCC2C(N)=O)sc1-c1ccnc(C(C)(C)C(F)(F)F)c1 — what was its pIC50?
Response: < 5.00

Query: Sample C=CC(=O)N1CCN(c2nc(=O)n(-c3c(C)ccnc3C(C)C)c3nc(-c4c(O)cccc4F)c(F)cc23)C(C)C1 (stereo not given) + CC(Nc1ncnc2nc[nH]c12)c1cc2cccc(Cl)c2c(=O)n1-c1ccccc1 — what was its pIC50?
Response: < 5.00

Continue with the compound presented below.
Query: Sample CC(=O)c1c(C)c2cnc(Nc3ccc(N4CCNCC4)cn3)nc2n(C2CCCC2)c1=O + CC(Nc1ccc2c(c1)OCCn1cc(N3C(=O)OCC3C(F)F)nc1-2)C(N)=O — what was its pIC50?
Response: < 7.00

* * *

# Test system: 361931-004-R-J1-PDC multicell spheroid viability
# Experiment notes: Anticancer human tumor 361931-004-R-J1-PDC cell line growth inhibition [PI3K];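 also: spheroids exposed to agents for seven days before readout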
# Measurement conditions: second compound 0.316 µM; first compound 0.1 µM; stronger effect = lower value
Property: viability, T/C (%)
Value expressed in %; do not type the unit.

# count of solved cases: 3
Query: Sample CC(Cn1ccc(-c2ccc(C#N)c(Cl)c2)n1)NC(=O)c1cc(C(C)O)[nH]n1 (centres undefined) + CC(Nc1ccc2c(c1)OCCn1cc(N3C(=O)OCC3C(F)F)nc1-2)C(N)=O — what was its viability, T/C?
Response: 92.1

Query: Sample Cn1ncc(Cl)c1-c1cc(C(=O)NC(CN)Cc2cccc(F)c2)sc1Cl (centres undefined) + Cc1nc(NC(=O)N2CCCC2C(N)=O)sc1-c1ccnc(C(C)(C)C(F)(F)F)c1 — what was its viability, T/C?
Response: 87.5

Query: Sample CNC(=O)c1ccc(N2C(=S)N(c3ccc(C#N)c(C(F)(F)F)c3)C(=O)C2(C)C)cc1F + Cc1nc(NC(=O)N2CCCC2C(N)=O)sc1-c1ccnc(C(C)(C)C(F)(F)F)c1 — what was its viability, T/C?
Response: 90.8

Continue with the compound presented below.
Query: Sample CCCS(=O)(=O)Nc1ccc(F)c(C(=O)c2c[nH]c3ncc(-c4ccc(Cl)cc4)cc23)c1F + Cc1nc(NC(=O)N2CCCC2C(N)=O)sc1-c1ccnc(C(C)(C)C(F)(F)F)c1 — what was its viability, T/C?
Response: 92.1

* * *

# System: 361931-004-R-J1-PDC multicell spheroid viability
# Experiment notes: Anticancer human tumor 361931-004-R-J1-PDC cell line growth inhibition [PI3K];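 also: spheroids exposed to agents for seven days before readout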
# Measurement conditions: curve of first compound; second compound 0.0316 µM
pIC50: −log10 of the molar value.
Property: pIC50

Query: Sample CNC(=O)c1ccc(N2C(=S)N(c3ccc(C#N)c(C(F)(F)F)c3)C(=O)C2(C)C)cc1F + Cc1nc(NC(=O)N2CCCC2C(N)=O)sc1-c1ccnc(C(C)(C)C(F)(F)F)c1 — what was its pIC50?
Response: < 5.00

Query: Sample CC(=O)c1c(C)c2cnc(Nc3ccc(N4CCNCC4)cn3)nc2n(C2CCCC2)c1=O + Cc1nc(NC(=O)N2CCCC2C(N)=O)sc1-c1ccnc(C(C)(C)C(F)(F)F)c1 — what was its pIC50?
Response: < 7.00

Query: Sample Cn1ncnc1[C@H]1c2n[nH]c(=O)c3cc(F)cc(c23)N[C@@H]1c1ccc(F)cc1 + COc1c(OCCCN2CCOCC2)ccc2c3n(c(=NC(=O)c4cnc(N)nc4)nc12)CCN3 — what was its pIC50?
Response: < 7.00

Query: Sample CC(=O)c1c(C)c2cnc(Nc3ccc(N4CCNCC4)cn3)nc2n(C2CCCC2)c1=O + CC(Nc1ncnc2nc[nH]c12)c1cc2cccc(Cl)c2c(=O)n1-c1ccccc1 — what was its pIC50?
Response: < 7.00

Query: Sample CC(Cn1ccc(-c2ccc(C#N)c(Cl)c2)n1)NC(=O)c1cc(C(C)O)[nH]n1 (stereo unspecified) + CC(Nc1ncnc2nc[nH]c12)c1cc2cccc(Cl)c2c(=O)n1-c1ccccc1 — what was its pIC50?
Response: < 5.00

Query: Sample C#Cc1c(F)ccc2cc(O)cc(-c3ncc4c(N5CC6CCC(C5)N6)nc(OCC56CCCN5CC(F)C6)nc4c3F)c12 (stereo unspecified) + Cc1nc(NC(=O)N2CCCC2C(N)=O)sc1-c1ccnc(C(C)(C)C(F)(F)F)c1 — what was its pIC50?
Response: < 5.00

The reported numbers originate from PubChem BioAssay AID1963979.
